assayNotes: Fluorescence spectrometer analysis of cannabinoid monomers and adipate dimers
Type: physicochemical

compound	maximum fluorescence, Wavelength (nm)
CCCCCc1cc(O)c2c(c1)OC(C)(C)c1ccc(C)cc1-2 [CBN, cannabinol]	385
CCCCCc1cc(O)c2c(c1)OC(C)(C)[C@@H]1CC=C(C)C[C@@H]21 [D-8 THC]	380
CCCCCc1cc(OC(=O)CCCCC(=O)Oc2cc(CCCCC)cc3c2-c2cc(C)ccc2C(C)(C)O3)c2c(c1)OC(C)(C)c1ccc(C)cc1-2 [CBN adipate dimer, DiCannabinol adipate]	418
CCCCCc1cc(OC(=O)CCCCC(=O)Oc2cc(CCCCC)cc3c2C2CC(C)=CCC2C(C)(C)O3)c2c(c1)OC(C)(C)C1CC=C(C)CC21 (stereo not drawn) [d-8 THC adipate dimer]	384
